Quick reference: LC50 at 24 h of the listed items.
run_description: Brine shrimp lethality assay (BSA)
conditions: Artemia salina (brine shrimp) nauplii, in vivo, probit analysis, read-out: LC50 against Artemia salina larvae
Structures can show the parent of a compound that is named as a salt.
reported_endpoint: LC50 at 24 h (µg/mL)

> print(dat)
                                   compound  unit.spec  quantitative.result
1  O=C1CC(c2cc(O)cc(O)c2)Oc2cc(O)cc(O)c21 (centres unmarked) [compound 8, 5,7,3′,5′-Tetrahydroxy Flavanone]      µg/mL                    2
2  COc1ccc2cc3[n+](cc2c1OC)CCc1cc2c(cc1-3)OCO2 [berberine hydrochloride, reference compound]      µg/mL                   26

Values from paper PMC3349126
